# TARGET: VEGF165 (human, UniProt P15692-4 27-191)
# Sequence (P15692 other isoform, or with tags, fused parts or gaps): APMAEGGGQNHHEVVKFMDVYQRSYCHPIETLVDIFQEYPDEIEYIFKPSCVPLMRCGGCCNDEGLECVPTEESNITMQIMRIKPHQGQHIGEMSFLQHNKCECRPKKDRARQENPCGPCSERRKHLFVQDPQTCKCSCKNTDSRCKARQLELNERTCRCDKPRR
# TEST PROTOCOL: BLI; BLI (Octet RED96), 25 C, 1000 rpm, 200 uL binding buffer (composition not given), VEGF165 6.25-100 nM, BSA blank as reference
# DETAILS: protein: commercial; chain copies: 2; B-DNA form by CD
MEASURED ENDPOINT: pKd
// pKd: -log10(molar conc.)

Problem: Answer with the recorded pKd of CCGTCTTCCAGACAAGAGTGCAGGG (ssDNA) [anti-VEGF165 aptamer] only.
Solution: 9.54
